The reported numbers originate from the supplement of paper PMC11061612.

System: MDA-MB-453 (Breast Carcinoma)
methodDescription: Bliss excess, mean over the matrix (fraction); higher = more synergy
endpoint: Bliss excess
Just the number, please, no unit after it.

Query block: Data request, read-out Bliss excess, for CN(CCO)CC[C@H](CSc1ccccc1)Nc1ccc(S(=O)(=O)NC(=O)c2ccc(N3CCC([C@@H](O)c4ccccc4-c4ccc(Cl)cc4)CC3)cc2)cc1S(=O)(=O)C(F)(F)F [AZD4320] + C[C@@H](Nc1cc(F)cc(F)c1)c1cc(C(=O)N(C)C)cc2c(=O)cc(N3CCOCC3)oc12 [AZD8186] (first compound max 1 µM, 7x7, partner max 3 µM)
Result block: 0.02

Query block: Return reported Bliss excess; argument: CCN(CCO)CCCOc1ccc2c(Nc3cc(CC(=O)Nc4cccc(F)c4)[nH]n3)ncnc2c1 [AZD2811] + C=CCn1c(=O)c2cnc(Nc3ccc(N4CCN(C)CC4)cc3)nc2n1-c1cccc(C(C)(C)O)n1 [AZD1775] (first compound max 1 µM, partner max 1 µM)
Result block: 0.0236

Query block: What value of Bliss excess has been reported for the following compound? O=C(c1cc(Cc2n[nH]c(=O)c3ccccc23)ccc1F)N1CCN(C(=O)C2CC2)CC1 [Olaparib] + CC1(C)CCC(CN2CCN(c3ccc(C(=O)NS(=O)(=O)c4ccc(NCC5CCOCC5)c([N+](=O)[O-])c4)c(Oc4cnc5[nH]ccc5c4)c3)CC2)=C(c2ccc(Cl)cc2)C1 [Venetoclax] (first compound max 10 µM, 7x7, partner max 1 µM)
Result block: -0.0323

Query block: What does the record list as Bliss excess for CN(C)CCCOc1ccc(-c2ccc3ncc4c(c3c2)n(C2CCOCC2)c(=O)n4C)cn1 [AZD0156] + CCN(CCO)CCCOc1ccc2c(Nc3cc(CC(=O)Nc4cccc(F)c4)[nH]n3)ncnc2c1 [AZD2811] (first compound max 1 µM, 7x7, partner max 1 µM) ?
Result block: -0.0208

Query block: Please report the recorded Bliss excess for Cc1cc2ncnn2cc1Nc1ncc2c(n1)n(C1CCOCC1)c(=O)n2C [AZD7648] + COc1cc([C@@H]2c3cc4c(cc3[C@@H](O[C@@H]3O[C@@H]5CO[C@@H](C)O[C@H]5[C@H](O)[C@H]3O)[C@H]3COC(=O)[C@H]23)OCO4)cc(OC)c1O [Etoposide] (first compound max 10 µM, 7x7, partner max 10 µM) .
Result block: -0.0136

Query block: Tell me the measured Bliss excess of CN(CCO)CC[C@H](CSc1ccccc1)Nc1ccc(S(=O)(=O)NC(=O)c2ccc(N3CCC([C@@H](O)c4ccccc4-c4ccc(Cl)cc4)CC3)cc2)cc1S(=O)(=O)C(F)(F)F [AZD4320] + C=CCn1c(=O)c2cnc(Nc3ccc(N4CCN(C)CC4)cc3)nc2n1-c1cccc(C(C)(C)O)n1 [AZD1775] (first compound max 1 µM, partner max 1 µM) , please.
Result block: 0.047

---

Listed here: items and their measured combination Emax.
Test system: NCI-H522 (Lung Adenocarcinoma)
methodDescription: combination Emax (second highest fraction inhibited in the dose matrix, 72 h); higher = more inhibition; extreme values may be limits of the assay
I'd appreciate a reply containing only the number, no unit.

Query block: Item under review: CN(CCO)CC[C@H](CSc1ccccc1)Nc1ccc(S(=O)(=O)NC(=O)c2ccc(N3CCC([C@@H](O)c4ccccc4-c4ccc(Cl)cc4)CC3)cc2)cc1S(=O)(=O)C(F)(F)F [AZD4320] + CS(=O)(=O)CCNCc1ccc(-c2ccc3ncnc(Nc4ccc(OCc5cccc(F)c5)c(Cl)c4)c3c2)o1 [Lapatinib] (first compound max 1 µM, 7x7, partner max 10 µM) . Reported combination Emax?
Result block: 0.237

Query block: Given COc1cccc(OCCCN)c1-c1cc(Nc2cnc(C#N)cn2)n[nH]1 [Prexasertib] + CN(C)CCCOc1ccc(-c2ccc3ncc4c(c3c2)n(C2CCOCC2)c(=O)n4C)cn1 [AZD0156] (first compound max 1 µM, 7x7, partner max 1 µM) , state its recorded combination Emax.
Result block: 0.385

Query block: Reported combination Emax for CCc1c2c(nc3ccc(O)cc13)-c1cc3c(c(=O)n1C2)COC(=O)[C@]3(O)CC [SN-38] + O=C(c1cc(Cc2n[nH]c(=O)c3ccccc23)ccc1F)N1CCN(C(=O)C2CC2)CC1 [Olaparib] (first compound max 0.3 µM, 7x7, partner max 10 µM) : what is it?
Result block: 0.389

---

Tested on: NCI-H2122 (Lung Adenocarcinoma)
methodDescription: Bliss excess, mean over the matrix (fraction); higher = more synergy
Answer no if Bliss excess is under 0.04, and yes if it is 0.04 or more.

1) CC(=O)c1c(C)c2cnc(Nc3ccc(N4CCNCC4)cn3)nc2n(C2CCCC2)c1=O [Palbociclib] + CN(CC[C@H](CSC1=CC=CC=C1)NC2=C(C=C(C=C2)S(=O)(=O)NC(=O)C3=CC=C(C=C3)N4CCC(CC4)[C@H](C5=CC=CC=C5C6=CC=C(C=C6)Cl)O)S(=O)(=O)C(F)(F)F)CCO [AZD4320] (first compound max 10 µM, 7x7, partner max 1 µM) | no

Query block: Is reported Bliss excess greater than or equal to 0.04 here: COc1nnc2ccc(N3CCC(c4ccc(OCCN5CCN(C)C(=O)[C@H]5C)cc4)CC3)nn12 [AZD5153] + Cn1cnc2c(F)c(Nc3ccc(Br)cc3Cl)c(C(=O)NOCCO)cc21 [Selumetinib] (first compound max 1 µM, 7x7, partner max 10 µM)
Result block: yes

Query block: Confirm if Bliss excess reported for the compound CC(=O)c1c(C)c2cnc(Nc3ccc(N4CCNCC4)cn3)nc2n(C2CCCC2)c1=O [Palbociclib] + Cn1cnc2c(F)c(Nc3ccc(Br)cc3Cl)c(C(=O)NOCCO)cc21 [Selumetinib] (first compound max 10 µM, 7x7, partner max 10 µM) is 0.04 or above.
Result block: yes

Query block: Exam item: decide whether the reported Bliss excess for CC(=O)Nc1cccc(-n2c(=O)n(C3CC3)c(=O)c3c(Nc4ccc(I)cc4F)n(C)c(=O)c(C)c32)c1 [Trametinib] + Cc1nc(-c2cn3c(n2)-c2ccc(-c4cnn(C(C)(C)C(N)=O)c4)cc2OCC3)n(C(C)C)n1 [Taselisib] (first compound max 1 µM, 7x7, partner max 10 µM) is at least 0.04.
Result block: yes

Query block: Entry Cc1cc2ncnn2cc1Nc1ncc2c(n1)n(C1CCOCC1)c(=O)n2C [AZD7648] + CN(C)CCCOc1ccc(-c2ccc3ncc4c(c3c2)n(C2CCOCC2)c(=O)n4C)cn1 [AZD0156] (first compound max 10 µM, 7x7, partner max 1 µM) : is its Bliss excess no less than 0.04?
Result block: yes

---

As shown below, each of these compounds has a reported combination Emax value.
Test system: COLO-679 (Melanoma)
methodDescription: combination Emax (second highest fraction inhibited in the dose matrix, 72 h); higher = more inhibition; extreme values may be limits of the assay
API note: the answer field is a bare number with no unit suffix.

Below, 3 compounds whose answers are already recorded.
1. Cc1cc2ncnn2cc1Nc1ncc2c(n1)n(C1CCOCC1)c(=O)n2C [AZD7648] + C[C@@H]1COCCN1C2=NC(=NC(=C2)C3(CC3)[S@](=N)(=O)C)C4=C5C=CNC5=NC=C4 [AZD6738] (first compound max 10 µM, 7x7, partner max 10 µM) | 0.687
2. NC1(C(=O)N[C@@H](CCO)c2ccc(Cl)cc2)CCN(c2ncnc3[nH]ccc23)CC1 [Capivasertib] + C[C@@H]1COCCN1C2=NC(=NC(=C2)C3(CC3)[S@](=N)(=O)C)C4=C5C=CNC5=NC=C4 [AZD6738] (first compound max 10 µM, 7x7, partner max 10 µM) | 0.634
3. COc1cccc(OCCCN)c1-c1cc(Nc2cnc(C#N)cn2)n[nH]1 [Prexasertib] + CN(C)CCCOc1ccc(-c2ccc3ncc4c(c3c2)n(C2CCOCC2)c(=O)n4C)cn1 [AZD0156] (first compound max 1 µM, 7x7, partner max 1 µM) | 0.871

Now consider a different compound.
Query block: # get_value(readout='combination Emax', item= COc1cccc2c1C(=O)c1c(O)c3c(c(O)c1C2=O)C[C@@](O)(C(=O)CO)C[C@@H]3O[C@H]1C[C@H](N)[C@H](O)[C@H](C)O1 [Doxorubicin] + Cc1cc2ncnn2cc1Nc1ncc2c(n1)n(C1CCOCC1)c(=O)n2C [AZD7648] (first compound max 1 µM, 7x7, partner max 10 µM) )
Result block: 0.959

---

Tested on: MV-4-11 (Acute Myeloid Leukemia)
methodDescription: Bliss excess, mean over the matrix (fraction); higher = more synergy
endpoint: Bliss excess

The following molecules have reported results that may help.
1. Cc1c2c(nn1C)CSCc1cc(n(C)n1)CSc1cc(c3ccccc3c1)OCCCc1c(C(=O)O)n(C)c3c-2c(Cl)ccc13 [AZD5991] + C1CN(CCC1(C(=O)N[C@@H](CCO)C2=CC=C(C=C2)Cl)N)C3=NC=NC4=C3C=CN4 [Capivasertib] (first compound max 1 µM, 7x7, partner max 3 µM) | -0.0089
2. CC1(C)CCC(CN2CCN(c3ccc(C(=O)NS(=O)(=O)c4ccc(NCC5CCOCC5)c([N+](=O)[O-])c4)c(Oc4cnc5[nH]ccc5c4)c3)CC2)=C(c2ccc(Cl)cc2)C1 [Venetoclax] + C[C@@H](Nc1cc(F)cc(F)c1)c1cc(C(=O)N(C)C)cc2c(=O)cc(N3CCOCC3)oc12 [AZD8186] (first compound max 1 µM, 7x7, partner max 3 µM) | 0.0641

# next molecule below
Query block: Param readout = Bliss excess; param system = MV-4-11 (Acute Myeloid Leukemia); param query = Cc1nc(Nc2ncc(C(=O)Nc3c(C)cccc3Cl)s2)cc(N2CCN(CCO)CC2)n1 [Dasatinib] + CC(=O)Nc1cccc(-n2c(=O)n(C3CC3)c(=O)c3c(Nc4ccc(I)cc4F)n(C)c(=O)c(C)c32)c1 [Trametinib] (first compound max 2 µM, 7x7, partner max 1 µM) ; response: value
Result block: -0.128
